The origin of these recorded values is ChEMBL document CHEMBL5215011.

In this section, each of the compounds is paired with its reported IC50.
Tested on: MM1.S
Test: Antiproliferative activity against human MM1.S cells assessed as inhibition of cell proliferation incubated for 72 hrs by XTT assay
Assay type: functional, cell-based
property: IC50 (µM)

[
  {
    "compound": "CC(C)C[C@H](NC(=O)[C@H](Cc1ccccc1)NC(=O)c1cnccn1)B(O)O [BORTEZOMIB]",
    "subject-of-test": "MM1.S",
    "property": "IC50",
    "value": 0.0032
  },
  {
    "compound": "COC1=CC(=O)C=C(OC)C1=O [2,6-DIMETHOXYQUINONE]",
    "subject-of-test": "MM1.S",
    "property": "IC50",
    "value": 1.1
  },
  {
    "compound": "CC(C)=CC[C@@]12O[C@@H]1C(=O)c1c(O)ccc(O)c1C2=O",
    "subject-of-test": "MM1.S",
    "property": "IC50",
    "value": 0.7
  },
  {
    "compound": "CC(C)=CC[C@@]12O[C@@H]1C(=O)c1c(O)ccc(O[C@@H]3O[C@H](CO)[C@@H](O)[C@H](O)[C@H]3O)c1C2=O",
    "subject-of-test": "MM1.S",
    "property": "IC50",
    "value": 4.8
  },
  {
    "compound": "CC(C)(O)/C=C\\C(O)=C1C(=O)c2c(O)ccc(O)c2C1=O",
    "subject-of-test": "MM1.S",
    "property": "IC50",
    "value": 14.7
  }
]
